# protocol-text: GAA30 FXN promoter activators, confirmation, counter-screen for GAA850 frataxin promoter activator project, cell-based, luminescence, HEK293, lucGAA30, triplicate (AID 588350);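 further: counterscreen of GAA850 promoter hits where activity marks nonselective or luminescence artifacts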
# condition-parameters: HEK293 lucGAA30 FXN promoter luciferase, 24 h; at 6 µM; stronger effect = higher value; DMSO = 0%, 5 µM ipriflavone = 100%
The campaign covered roughly 1,900 compounds. About 1,200 (63%) were called active. The set was probably picked from earlier hits. A selection follows.
readout-label: activation (%)
Field format: number, assumed %, no unit text.

Enquiry: Please list activation recorded for the molecule CN(C)S(=O)(=O)c1ccc2oc(SCC(=O)Nc3ccccc3F)nc2c1
Return: 127

Enquiry: Identify activation associated with the molecule Cc1cc(=O)oc(C)c1C(=O)NCc1ccc(F)cc1
Return: 14.5

Enquiry: Give activation for the following molecule: COc1ccccc1C1=Nc2cccc3cccc(c23)N1
Return: 15.9

Enquiry: Please report the measured activation for COc1cc(C#Cc2ccc3cc(CCCO)oc(=O)c3c2)cc(OC)c1
Return: 7.14

Enquiry: Return the recorded activation value; entry: O=C(NCc1ccco1)c1ccc(Cn2c(=O)c3sccc3n(Cc3ccc(F)cc3)c2=O)cc1
Return: 24.6

Enquiry: Give the reported activation for this molecule. Cc1cc(C)nc(S/C=C/C(=O)c2ccccc2)n1
Return: -58.6
